B1: r11_951_TrROS_Hall (parent)
chain: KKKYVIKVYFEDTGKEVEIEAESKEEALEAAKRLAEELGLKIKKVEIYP

# Variants of: B1
# procedure_details: folding stability dG (cDNA display proteolysis); higher = more stable
# test_conditions: PBS, room temperature
endpoint_label: folding stability dG (kcal/mol)
I only need the number, in kcal/mol, no unit after it.

Example cases with answers are listed next.
residue_codes="KKKYVIKVYFEDTGKEVEIEAESKEEALEAAKRLAEELGLKIKKVEIYR [P49R]" test_result=4.5
residue_codes="KKKYVIKVYFEDTGKEVEIEAESKEEALEAAKRLAEELGLMIKKVEIYP [K41M]" test_result=4.38
residue_codes="KKKYVIKVYFEDTGKEVEIEAESKEEALEAAKRLAEELGLSIKKVEIYP [K41S]" test_result=4.41
residue_codes="KKKYVIKVYFEDTGKEVEIEAESKEEALEAAKRLMEELGLKIKKVEIYP [A35M]" test_result=3.97

Any idea what its folding stability dG is? The variant is FKKYVIKVYFEDTGKEVEIEAESKEEALEAAKRLAEELGLKIKKVEIYP [K1F]
4.54

Any idea what its folding stability dG is? The variant is KKKYVIKVYFEDTGKEVEHEAESKEEALEAAKRLAEELGLKIKKVEIYP [I19H]
3.61

Any idea what its folding stability dG is? The variant is KKKYVIKVYFEDTGKEVEIEAESKEEALEAAKRLAEELKLKIKKVEIYP [G39K]
4.53

Any idea what its folding stability dG is? The variant is KKKYVNKVYFEDTGKEVEIEAESKEEALEAAKRLAEELGLKIKKVEIYP [I6N]
1.53
